Tested on: CCRIS mutagenicity, Ames/micronucleus/aberration tests
experiment-summary: CCRIS mutagenicity studies
recorded-conditions: Test System: AMES SALMONELLA TYPHIMURIUM; Strain/Indicator: TA100; Metabolic Activation: RAT LIVER S-9, PHENOBARBITAL AND BETA-NAPHTHOFLAVONE; Method: PREINCUBATION
Active and inactive are the calls of the source. No rule for the calls is given here.
Outcome codes: label 1 = active, label 0 = inactive

compound: C1CC[C@H]2O[C@H]2C1
class-assignment: label 1
//
compound: NCCO
class-assignment: label 0
//
compound: O=c1n(Cl)c(=O)n(Cl)c(=O)n1Cl
class-assignment: label 0
//
compound: c1ccc(C2CO2)cc1 (stereo not given)
class-assignment: label 1
//
compound: O=[N+]([O-])c1ccc(/C=C/c2ccc([N+](=O)[O-])cc2S(=O)(=O)O)c(S(=O)(=O)O)c1
class-assignment: label 0
//
compound: Nc1ccc(Oc2ccc(N)cc2)cc1
class-assignment: label 1
//
compound: Nc1cc(S(=O)(=O)O)c2cccc(S(=O)(=O)O)c2c1
class-assignment: label 0
//
compound: CC=O
class-assignment: label 0
//
compound: CCCCCCCCCCCCCCCCCC(N)=O
class-assignment: label 0
//
compound: CCN1CCNC(=O)C1=O
class-assignment: label 0

Entry source: PubChem BioAssay AID1259407
